Would you kindly list MIC for each of these compounds?
Test system: C. glabrata TGL00277
Test: microbe, parasite or virus in culture
Format: cell-based
Conditions: strain no. 33, TGL00277, parental EF1620, FKS mutant

Problem: Kindly state the measured MIC obtained for CN(C)c1ccc2c(-c3ccc(C(=O)NCCCN=[N+]=[N-])cc3C(=O)[O-])c3ccc(=[N+](C)C)cc-3oc2c1 [Compound 5-TMR-azide] with C. glabrata TGL00277.
Solution: >64 µg/mL

Problem: Kindly state the measured MIC obtained for `C#CCOc1ccc([C@H](O)[C@@H](O)[C@@H]2NC(=O)[C@@H]3C[C@@H](O)CN3C(=O)[C@H]([C@@H](C)O)NC(=O)[C@@H](NC(=O)CCCCCCCC[C@@H](C)C[C@@H](C)CC)C[C@@H](O)[C@@H](NCCN)NC(=O)[C@@H]3[C@@H](O)CCN3C(=O)[C@H]([C@H](O)CCN)NC2=O)cc1` with C. glabrata TGL00277.
Solution: >64 µg/mL

---

Tested on: C. albicans SC5314
Test: MIC, broth double dilution
Type: cell-based
Conditions: strain no. 1, C. albicans SC5314, WT
Method: The antifungal activities of compounds 1a, 1 and 2 (collectively: caspofungin derivatives) were compared to that of caspofungin and CSF-BOD using a panel of 49 C. albicans and C. glabrata strains (Tables 1 and 2). […] Minimal inhibitory concentration (MIC) values for all strains were determined using the broth double dilution method and are summarized in FIG. 2 and Table 2. MIC values were determined using the broth double-dilution method. […]
Would you kindly list MIC for each of these compounds?

Problem: Reported MIC, compound CC[C@H](C)C[C@H](C)CCCCCCCCC(=O)N[C@H]1C[C@@H](O)[C@@H](NCCNC(=O)CCc2ccc3n2[B-](F)(F)[N+]2=C(C)C=C(C)C2=C3)NC(=O)[C@@H]2[C@@H](O)CCN2C(=O)[C@H]([C@H](O)CCN)NC(=O)[C@H]([C@H](O)[C@@H](O)c2ccc(O)cc2)NC(=O)[C@@H]2C[C@@H](O)CN2C(=O)[C@H]([C@@H](C)O)NC1=O [CSF-BOD] : ____
Solution: 1 µg/mL

Problem: Reported MIC, compound CN(C)c1ccc2c(-c3ccc(C(=O)NCCCN=[N+]=[N-])cc3C(=O)[O-])c3ccc(=[N+](C)C)cc-3oc2c1 [Compound 5-TMR-azide] : ____
Solution: >64 µg/mL

Problem: Reported MIC, compound CC[C@H](C)C[C@H](C)CCCCCCCCC(=O)N[C@H]1C[C@@H](O)[C@@H](NCCN)NC(=O)[C@@H]2[C@@H](O)CCN2C(=O)[C@H]([C@H](O)CCN)NC(=O)[C@H]([C@H](O)[C@@H](O)c2ccc(OCc3cn(CCCNc4ccc([N+](=O)[O-])c5nonc45)nn3)cc2)NC(=O)[C@@H]2C[C@@H](O)CN2C(=O)[C@H]([C@@H](C)O)NC1=O [Compound 2] : ____
Solution: 1 µg/mL

Problem: Reported MIC, compound C#CCOc1ccc([C@H](O)[C@@H](O)[C@@H]2NC(=O)[C@@H]3C[C@@H](O)CN3C(=O)[C@H]([C@@H](C)O)NC(=O)[C@@H](NC(=O)CCCCCCCC[C@@H](C)C[C@@H](C)CC)C[C@@H](O)[C@@H](NCCN)NC(=O)[C@@H]3[C@@H](O)CCN3C(=O)[C@H]([C@H](O)CCN)NC2=O)cc1 [Compound 1a] : ____
Solution: 0.125 µg/mL

Problem: Reported MIC, compound CC[C@H](C)C[C@H](C)CCCCCCCCC(=O)N[C@H]1C[C@@H](O)[C@@H](NCCN)NC(=O)[C@@H]2[C@@H](O)CCN2C(=O)[C@H]([C@H](O)CCN)NC(=O)[C@H]([C@H](O)[C@@H](O)c2ccc(OCc3cn(CCCNC(=O)c4ccc(-c5c6ccc(=[N+](C)C)cc-6oc6cc(N(C)C)ccc56)c(C(=O)[O-])c4)nn3)cc2)NC(=O)[C@@H]2C[C@@H](O)CN2C(=O)[C@H]([C@@H](C)O)NC1=O [Compound 1] : ____
Solution: 0.25 µg/mL
